target: biotinylated labeled human GPC3 protein (produced in-house) (human, UniProt P51654 25-559, limits assumed, biotinylated (Dojindo, Cat. No. LK03); sites not stated); experiment: ELISA, biotinylated human GPC3 protein
Reported OD450 at 0.004 nM values for a set of binders
Record the value in OD450, omitting the unit from your answer.

Item: hAb001H1aL1 (antibody, human IgG1, V domains shown, Humanized F2.169.2; VH H1a + VL L1; expressed as human IgG1) VH: EVQLVESGGGLVQPGGSLRLSCAASGFSFNTNAMNWVRQAPGKGLEWVGRIRSKSNNYATYYADSVKGRFTISRDDSKNSLYLQMNSLKTEDTAVYYCVRDGYYVLFAYWGQGTLVTVSS VL: DIVMTQTPLSLPVTPGEPASISCRFSQSIVNSNGNTYLEWFLQKPGQSPQLLIYKVSNRFSGVPDRFSGSGSGTDFTLKISRVEAEDVGVYYCFQGSHVPFTFGQGTKLEIK | OD450 at 0.004 nM: 0.327

Reported OD450 at 0.004 nM for hAb007LH2L1a (antibody, human IgG1, V domains shown, Humanized F3.81.19; VH H2 + VL L1a; expressed as human IgG1) VH: EVQLVQSGAEVKKPGSSVKVSCKASGYTFTDYEMHWVRQAPGQGLEWMGTIDPETGNTAYNQKFKGRVTITADKSTSTAYMELSSLRSEDTAVYYCTRPYSLTYWGQGTLVTVSS VL: DIVMTQTPLSLPVTPGEPASISCRSSQSFVHSDGDTYLQWYLQKPGQSPQLLIYKVSNRFSGVPDRFSGSGSGTDFTLKISRVEAEDVGVYYCFQGSHVPYTFGQGTKLEIK was 0.099
